Molecular target: HIV-1 protease (Human immunodeficiency virus type 1 group M subtype B, UniProt P04585)
Test: biochemical
Details: Table I; Dose 0.123 μM
Procedure: The HIV protease screening assay is based on fluorescently labeled substrate which can be resolved from nonlabeled cleavage product using special beads coated with streptavidin. […] The labeled cleavage product is separated from the unreacted substrate via filtration and is read on the Idexx screen machine. The data are analyzed by appropriate computer algorithms to ascertain percent inhibition values.
Form field: PROTEASE % INHIB. (one value per entry).
Response body: numeric value in %, unit text excluded.

input: Report PROTEASE % INHIB. for CC[C@@H](Cc1ccccc1)c1cc(O)c(C(c2cccc(NS(=O)(=O)c3cn(C)cn3)c2)C2CC2)c(=O)o1 (single isomer, unassigned) [Example 140] please.
output: 103.22

input: Report PROTEASE % INHIB. for CC[C@H](Cc1ccccc1)c1cc(O)c(C(c2cccc(NS(=O)(=O)c3nccn3C)c2)C2CC2)c(=O)o1 (single isomer, unassigned) [Example 144] please.
output: 80.58

input: Report PROTEASE % INHIB. for CC[C@H](Cc1ccccc1)c1cc(O)c(C(c2cccc(NS(=O)(=O)c3ccccn3)c2)C2CC2)c(=O)o1 (single isomer, unassigned) [Example 142] please.
output: 78.01

input: Report PROTEASE % INHIB. for CCCC1(CCC)CC(O)=C(C(CC)c2cccc(NS(=O)(=O)c3cccc4cccnc34)c2)C(=O)O1 (single isomer, unassigned) [Example 54] please.
output: 46.64

input: Report PROTEASE % INHIB. for CCCC1(CCC)CC(O)=C(C(CC)c2cccc(NS(=O)(=O)c3cn(C)cn3)c2)C(=O)O1 (single isomer, unassigned) [Example 53] please.
output: 88.61

input: Report PROTEASE % INHIB. for CC[C@H](Cc1ccccc1)c1cc(O)c(C(c2cccc(NS(=O)(=O)c3ccc(C#N)cc3)c2)C2CC2)c(=O)o1 (single isomer, unassigned) [Example 149] please.
output: 80.51

input: Report PROTEASE % INHIB. for CCCC1(CCC)CC(O)=C(C(c2cccc(NS(=O)(=O)c3cn(C)cn3)c2)C2CC2)C(=O)O1 (single isomer, unassigned) [Example 57] please.
output: 99.07

input: Report PROTEASE % INHIB. for CCCC1(CCC)CC(O)=C(C(CC)c2cccc(NS(=O)(=O)c3cccc4cccnc34)c2)C(=O)O1 (single isomer, unassigned) [Example 52] please.
output: 85.08
